Biological target: Full length human PDE2A protease (Homo sapiens, UniProt O00408)
Construct: Full length human PDE2A protease; GST (N); host or cells: insect Sf9 cells (baculovirus)
Sequence (O00408 whole entry): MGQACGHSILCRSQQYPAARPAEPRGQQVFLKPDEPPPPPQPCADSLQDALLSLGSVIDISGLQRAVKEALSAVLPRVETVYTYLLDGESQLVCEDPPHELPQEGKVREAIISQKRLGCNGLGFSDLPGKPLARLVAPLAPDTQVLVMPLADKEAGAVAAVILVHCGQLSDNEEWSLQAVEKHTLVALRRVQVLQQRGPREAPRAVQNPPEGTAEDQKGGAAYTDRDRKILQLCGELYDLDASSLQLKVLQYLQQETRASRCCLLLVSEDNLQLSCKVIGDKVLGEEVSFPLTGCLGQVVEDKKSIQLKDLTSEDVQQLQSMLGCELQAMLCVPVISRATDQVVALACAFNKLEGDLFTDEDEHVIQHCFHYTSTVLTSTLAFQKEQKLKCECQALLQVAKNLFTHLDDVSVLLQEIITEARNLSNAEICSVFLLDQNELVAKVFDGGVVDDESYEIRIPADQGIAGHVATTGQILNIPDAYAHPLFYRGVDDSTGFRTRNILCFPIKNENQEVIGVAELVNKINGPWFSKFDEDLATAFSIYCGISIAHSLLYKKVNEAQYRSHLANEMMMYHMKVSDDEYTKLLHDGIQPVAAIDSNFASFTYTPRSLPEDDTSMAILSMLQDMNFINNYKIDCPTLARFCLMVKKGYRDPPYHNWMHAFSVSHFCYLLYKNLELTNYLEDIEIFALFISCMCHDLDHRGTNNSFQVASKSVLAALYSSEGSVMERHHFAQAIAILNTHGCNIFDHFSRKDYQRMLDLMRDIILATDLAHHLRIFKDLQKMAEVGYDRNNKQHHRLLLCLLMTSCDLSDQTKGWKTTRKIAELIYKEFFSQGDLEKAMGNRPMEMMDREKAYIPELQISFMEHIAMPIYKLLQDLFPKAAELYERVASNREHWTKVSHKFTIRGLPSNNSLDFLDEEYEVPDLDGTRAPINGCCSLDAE
Assay: In vitro evaluation of PDE2 phosphodiesterase inhibitory activity (Transcreener AMP2/GMP2 fluorescence polarization)
Assay type: biochemical
Conditions: recombinant full length human PDE2A, substrate 1 μM cGMP, 1 hour at room temperature; read-out: PDE2 phosphodiesterase inhibitory activity
measured property: IC50

Cc1cc(CCCCn2c(=O)c3c(ncn3CC(C)C)n(C)c2=O)on1 [Example 60] | 1 to 10 µM
Cn1cnc2c1c(=O)n(CCCc1c[nH]c3ccccc13)c(=O)n2C [Example 41] | 1 to 10 µM
Cc1cc(C2CCC(n3c(=O)c4c(ncn4C)n(C)c3=O)CC2)on1 (stereo not drawn) [Example 27] | 10 to 50 µM
Cn1cnc2c1c(=O)n(CCCCc1nn[nH]n1)c(=O)n2C [Example 37] | 10 to 50 µM
Cc1cc(CCCCn2cnn3cnc(CC(C)C)c3c2=O)on1 [Example 82] | 1 to 10 µM
Cc1cc(-c2ccc(Cn3c(=O)c4c(ncn4C)n(C)c3=O)cc2)on1 [Example 45] | 1 to 10 µM

QUERY: Query IC50 for Cc1cc(CCCCn2c(=O)c3c(ncn3CC(F)(F)F)n(C)c2=O)on1 [Example 51]
RESULT: 10 to 50 µM

QUERY: Input Cc1nc(C)c(CCn2c(=O)c3c(ncn3C)n(C)c2=O)s1 [Example 31] , output reported IC50.
RESULT: 1 to 10 µM

QUERY: Look up and state reported IC50 for Cc1cc(CCCCn2c(=O)c3c(cnn3CC(F)(F)F)n(C)c2=O)on1 [Example 75]
RESULT: 10 to 50 µM

----------
Molecular target: Full length human PDE2A protease (Homo sapiens, UniProt O00408)
Construct: Full length human PDE2A protease; GST (N); host or cells: insect Sf9 cells (baculovirus)
Experiment: In vitro evaluation of PDE2 phosphodiesterase inhibitory activity (Transcreener AMP2/GMP2 fluorescence polarization)
Format: biochemical
Conditions: recombinant full length human PDE2A, substrate 1 μM cGMP, 1 hour at room temperature; read-out: PDE2 phosphodiesterase inhibitory activity
measured property: IC50

Cc1cc(CCCCn2c(=O)c3ccn(C)c3n(C)c2=O)on1 [Example 67] | 10 to 50 µM

QUERY: Specify measured IC50 for Cc1cc(CCCCn2c(=O)c3c(ncn3C)n(C)c2=O)[nH]n1 [Example 12] .
RESULT: 10 to 50 µM

QUERY: Find the measured IC50 of Cc1cc(CCCCn2c(=O)c3c(ncn3C)n(C)c2=O)no1 [Example 20] and report it.
RESULT: 10 to 50 µM

QUERY: Tell us which IC50 value is on record for CCn1cnc2c1c(=O)n(CCCCc1cc(C)no1)c(=O)n2C [Example 50]
RESULT: 1 to 10 µM

QUERY: Tell me IC50 reported for Cc1cc(CCCCn2c(=O)c3c(ncn3CC3CC3)n(C)c2=O)on1 [Example 56]
RESULT: 1 to 10 µM

----------
Target: Full length human PDE2A protease (Homo sapiens, UniProt O00408)
Construct: Full length human PDE2A protease; GST (N); host or cells: insect Sf9 cells (baculovirus)
Test: In vitro evaluation of PDE2 phosphodiesterase inhibitory activity (Transcreener AMP2/GMP2 fluorescence polarization)
Assay type: biochemical
Settings: recombinant full length human PDE2A, substrate 1 μM cGMP, 1 hour at room temperature; read-out: PDE2 phosphodiesterase inhibitory activity
measured property: IC50

Cn1nnc(CCCCn2c(=O)c3c(ncn3C)n(C)c2=O)n1 [Example 38 Isomer 1] | 10 to 50 µM

QUERY: Return IC50 for the following compound: Cc1cc(CCCCn2c(=O)c3c(cnn3CC3CC3)n(C)c2=O)on1
RESULT: 10 to 50 µM

QUERY: Respond only with IC50 recorded for Cn1ncc(CCCCn2c(=O)c3c(ncn3C)n(C)c2=O)n1
RESULT: 10 to 50 µM

QUERY: Specify measured IC50 for Cc1cc(CCCCn2c(=O)c3c(ncn3C(C)C)n(C)c2=O)on1 .
RESULT: 10 to 50 µM

QUERY: For the compound CC(C)c1cc(Cn2c(=O)c3c(ncn3CC3CC3)n(C)c2=O)on1 , report IC50.
RESULT: 1 to 10 µM

QUERY: Please indicate IC50 recorded for CC(C)c1cc(Cn2c(=O)c3c(ncn3C)n(C)c2=O)on1
RESULT: 1 to 10 µM

QUERY: Supply reported IC50 belonging to this compound: Cn1cnc2c1c(=O)n(CCCCc1cc3ccccc3o1)c(=O)n2C
RESULT: 1 to 10 µM

QUERY: Identify measured IC50 corresponding to Cc1cc(CCCCn2c(=O)c3cccnc3n(C)c2=O)on1
RESULT: 10 to 50 µM

QUERY: Fill in IC50 for record Cn1cnc2c1c(=O)n(CCCCCc1nn[nH]n1)c(=O)n2C
RESULT: 10 to 50 µM

QUERY: Please supply the value of reported IC50 for the item Cc1cc(CCCCn2c(=O)c3nn(C)cc3n(C)c2=O)on1
RESULT: 10 to 50 µM

QUERY: Read the entry Cn1cnc2c1c(=O)n(CCCCc1cn[nH]n1)c(=O)n2C and write its reported IC50.
RESULT: 10 to 50 µM

QUERY: Name the recorded IC50 of the item Cc1cc(CCCCn2c(=O)c3c(ncn3C(F)F)n(C)c2=O)on1 (single isomer, unassigned) [Example 49 Isomer 1] in your answer.
RESULT: 10 to 50 µM
